tested on: NCI-H460; experiment: Cytotoxicity against human NCI-H460 cells assessed as cell viability after 48 hrs by MTT assay; assay type: functional, cell-based; conditions: NCI-H460, 48 h
readout.type: IC50

> print(dat)
                                smiles.data  measured.result
1  COc1cc2nc(/C=C/c3ccc(F)cc3)n(CCCN(C)C)c(=O)c2cc1OC          > 20 µM
2  COc1ccc(/C=C/c2nc3cc(Cl)ccc3c(=O)n2CCCN(C)C)cc1OC          > 20 µM
3  CN(C)CCn1c(/C=C/c2ccc(Cl)cc2Cl)nc2ccccc2c1=O          > 20 µM
